target: gEgI mutant (338): HSV2 gEgI mutant heterodimer comprising gE and gI ectodomains with insertion of a (HSV2, UniProt P89475 21-416; P06764 21-256)
method_summary: ELISA, supernatant
measure: binding result

[[record]]
binder = "mAb clone 14 (antibody, V domains shown, also called GEGI/14IIa) VH: QVQLQQSGAELMKPGASVKISCKATGYTFSSYWIEWVKQRPGHGLEWIGEILPGSGSTNYNEKFKGKATFTADTSSNTAYMQLSSLTSEDSAVYYCASGSAGNYYGSSYEAMDYWGQGTSVTVSS VL: DIVLTQSPASLAVSLGQRATISCRASKSVSTSGYSYMHWYQQKPGQPPKLLIYLASNLESGVPARFSGSGSGTDFTLNIHPVEEEDAATYYCQHSRELPLTFGAGTKLELK"
result = "binds"

[[record]]
binder = "mAb clone 39 (antibody, V domains shown) VH: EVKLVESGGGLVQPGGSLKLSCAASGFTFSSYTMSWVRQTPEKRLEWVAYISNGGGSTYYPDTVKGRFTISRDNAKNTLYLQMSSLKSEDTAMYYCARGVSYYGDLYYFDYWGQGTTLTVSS VL: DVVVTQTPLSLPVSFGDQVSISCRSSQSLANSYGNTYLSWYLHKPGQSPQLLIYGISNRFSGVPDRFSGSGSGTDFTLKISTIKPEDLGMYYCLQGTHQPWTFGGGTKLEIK"
result = "binds"

